System: 624824-186-R-J2-PDC multicell spheroids, viability;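 note: spheroids exposed to agents for 7 days before viability read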
Test: Anticancer human tumor 624824-186-R-J2-PDC patient-derived colon adenocarcinoma cell line growth inhibition [PI3K]
Details: curve of first compound; second compound 0.316 µM
Excerpt: Combinatorial screen of targeted agents with the PI3K inhibitors inavolisib, alpelisib, duvelisib, and copanlisib in multi-cell type tumor spheroids A high-throughput screen of multi-cell type tumor spheroids was designed to identify active combinations of targeted small molecules and PI3K pathway inhibitors. […] Compounds. […] If the clinical Cmax for an agent had not been determined, the highest concentration tested was 10 microM. […]
Readings of IC50 for the listed compounds

INSERT INTO measurements (compound, measure, result) VALUES
  ('CC(C)NCC(C(=O)N1CCN(c2ncnc3c2C(C)CC3O)CC1)c1ccc(Cl)cc1 (stereo unspecified) + Cc1nc(NC(=O)N2CCCC2C(N)=O)sc1-c1ccnc(C(C)(C)C(F)(F)F)c1', 'IC50', '> 10 µM'),
  ('CC(Cn1ccc(-c2ccc(C#N)c(Cl)c2)n1)NC(=O)c1cc(C(C)O)[nH]n1 (stereo unspecified) + COc1c(OCCCN2CCOCC2)ccc2c3n(c(=NC(=O)c4cnc(N)nc4)nc12)CCN3', 'IC50', '> 10 µM'),
  ('Cn1cnc2c(F)c(Nc3ccc(Br)cc3Cl)c(C(=O)NOCCO)cc21 + CC(Nc1ncnc2nc[nH]c12)c1cc2cccc(Cl)c2c(=O)n1-c1ccccc1', 'IC50', '> 3 µM'),
  ('Cn1ncc(Cl)c1-c1cc(C(=O)NC(CN)Cc2cccc(F)c2)sc1Cl (stereo unspecified) + CC(Nc1ncnc2nc[nH]c12)c1cc2cccc(Cl)c2c(=O)n1-c1ccccc1', 'IC50', '> 10 µM'),
  ('CNC(=O)c1ccc(N2C(=S)N(c3ccc(C#N)c(C(F)(F)F)c3)C(=O)C2(C)C)cc1F + CC(Nc1ncnc2nc[nH]c12)c1cc2cccc(Cl)c2c(=O)n1-c1ccccc1', 'IC50', '> 10 µM'),
  ('CCN1CCN(Cc2ccc(Nc3ncc(F)c(-c4cc(F)c5nc(C)n(C(C)C)c5c4)n3)nc2)CC1 + CC(Nc1ccc2c(c1)OCCn1cc(N3C(=O)OCC3C(F)F)nc1-2)C(N)=O', 'IC50', '> 1 µM'),
  ('CNC(=O)c1ccc(N2C(=S)N(c3ccc(C#N)c(C(F)(F)F)c3)C(=O)C2(C)C)cc1F + COc1c(OCCCN2CCOCC2)ccc2c3n(c(=NC(=O)c4cnc(N)nc4)nc12)CCN3', 'IC50', '> 10 µM'),
  ('CCCS(=O)(=O)Nc1ccc(F)c(C(=O)c2c[nH]c3ncc(-c4ccc(Cl)cc4)cc23)c1F + CC(Nc1ncnc2nc[nH]c12)c1cc2cccc(Cl)c2c(=O)n1-c1ccccc1', 'IC50', '> 10 µM');

# input May I ask what IC50 has been recorded for CC(Cn1ccc(-c2ccc(C#N)c(Cl)c2)n1)NC(=O)c1cc(C(C)O)[nH]n1 (stereo unspecified) + CC(Nc1ccc2c(c1)OCCn1cc(N3C(=O)OCC3C(F)F)nc1-2)C(N)=O ?
# output > 10 µM

# input May I ask what IC50 has been recorded for CC(C)n1nc(-c2ccc3oc(N)nc3c2)c2c(N)ncnc21 + CC(Nc1ncnc2nc[nH]c12)c1cc2cccc(Cl)c2c(=O)n1-c1ccccc1 ?
# output > 0.1 µM

# input May I ask what IC50 has been recorded for Cn1ncnc1[C@H]1c2n[nH]c(=O)c3cc(F)cc(c23)N[C@@H]1c1ccc(F)cc1 + CC(Nc1ccc2c(c1)OCCn1cc(N3C(=O)OCC3C(F)F)nc1-2)C(N)=O ?
# output > 0.1 µM
